Assay: pKa of the ligand
Assay type: physicochemical
Details: method marked (p), first pKa; read-out: pKa, first value (p)
Where a name gives a salt, the structure may show the parent alone.
property_label: pKa

>>> quantitative_result("O=c1ccn(CCO)c(C(O)c2ccccc2)c1O (stereo not shown) [Novartis bidentate ligand (3), reference compound]")
2.59
>>> quantitative_result("CCC(O)c1c(O)c(=O)cc(C)n1C (stereo not shown) [CP374, hydrochloride]")
2.76
>>> quantitative_result("O=C(OCCCn1ccc(=O)c(O)c1CO)c1ccccc1 [CP367, hydrochloride]")
2.6
>>> quantitative_result("COCc1cc(=O)c(O)c(COC)n1C [CP388, hydrochloride]")
2.93
